target-or-test-system: PTPN2 (Homo sapiens, UniProt P17706)
Construct: expressed in transfected cells; host or cells: 293T (293T.109 HiBiT-PTPN2 line; parental 293T WT from ATCC)
Sequence (P17706 whole entry, species assumed): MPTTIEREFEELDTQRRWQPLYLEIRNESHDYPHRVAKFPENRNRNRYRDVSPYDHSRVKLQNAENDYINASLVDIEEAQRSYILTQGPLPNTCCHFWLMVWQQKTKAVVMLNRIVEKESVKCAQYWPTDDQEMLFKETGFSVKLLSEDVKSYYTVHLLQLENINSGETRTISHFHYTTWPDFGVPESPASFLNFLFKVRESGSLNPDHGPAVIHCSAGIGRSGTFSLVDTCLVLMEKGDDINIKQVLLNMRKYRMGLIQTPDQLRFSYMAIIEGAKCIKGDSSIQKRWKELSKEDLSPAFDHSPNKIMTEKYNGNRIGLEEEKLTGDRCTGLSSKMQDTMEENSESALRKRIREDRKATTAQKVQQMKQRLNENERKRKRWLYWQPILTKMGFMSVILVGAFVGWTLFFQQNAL
assay-name: HiBiT-Degradation 293T.109 PTPN2 (Nano-Glo HiBiT Lytic Assay)
Assay type: cell-based
experimental-context: 293T.109 (HiBiT-PTPN2) cells, 24.0 hours

compound	DC50
Cn1c(=O)n(C2CCC(=O)NC2=O)c2ccc(C3CCN(C(=O)CN4CC[C@H](COc5ccc6cc(O)c(N7CC(=O)NS7(=O)=O)c(F)c6c5)C4)CC3)cc21 (stereo partly drawn)	50 to 200 nM
Cn1c(=O)n(C2CCC(=O)NC2=O)c2ccc(C3=CCC(CNC(=O)c4ccc5c(F)c(N6CC(=O)NS6(=O)=O)c(O)cc5c4)CC3)cc21 (stereo not drawn)	200 to 1000 nM
Cn1c(=O)n(C2CCC(=O)NC2=O)c2ccc(C3CCN(CCNC(=O)c4ccc5c(F)c(N6CC(=O)NS6(=O)=O)c(O)cc5c4)CC3)cc21 (stereo not drawn)	< 10 nM
Cn1c(=O)n(C2CCC(=O)NC2=O)c2ccc(C3CCN(CC(=O)N4CCN(c5ccc6cc(O)c(N7CC(=O)NS7(=O)=O)c(F)c6c5)CC4)CC3)cc21 (stereo not drawn)	10 to 50 nM
Cn1c(=O)n(C2CCC(=O)NC2=O)c2ccc(C3CCN(CC(=O)N4CCC(c5ccc6cc(O)c(N7CC(=O)NS7(=O)=O)c(F)c6c5)CC4)CC3)cc21 (stereo not drawn)	10 to 50 nM
O=C(CCOCCC(=O)N1CCN(c2ccc(NC3CCC(=O)NC3=O)cc2)CC1)NCCOc1ccc2cc(O)c(N3CC(=O)NS3(=O)=O)c(F)c2c1 (stereo not drawn)	≥ 1000 nM

###

Tested on: PTPN2
assay-name: HiBiT-Degradation B16F10.4 PTPN2
Type: cell-based
experimental-context: B16F10.4 cells, 24.0 hours
metric-name: DC50

molecule	metric-name	value
Cn1nc([C@@H]2CCC(=O)NC2=O)c2ccc(N3CCC(CC(=O)Nc4ccc5c(F)c(N6CC(=O)NS6(=O)=O)c(O)cc5c4)CC3)cc21 [Example 163]	DC50	10 to 50 nM
Cn1c(=O)n(C2CCC(=O)NC2=O)c2ccc(C3CCN(Cc4ccn(-c5ccc6c(F)c(N7CC(=O)NS7(=O)=O)c(O)cc6c5)n4)CC3)cc21 (centres unmarked) [Example 154]	DC50	≥ 1000 nM
Cn1c(=O)n(C2CCC(=O)NC2=O)c2ccc(C3CCN(CC(=O)NCCOc4ccc5cc(O)c(N6CC(=O)NS6(=O)=O)c(F)c5c4)CC3)cc21 (centres unmarked) [Example 4]	DC50	≥ 1000 nM
O=C1CCC(N2C(=O)c3cccc4c(C5CCN(CC(=O)N6CC(Oc7ccc8cc(O)c(N9CC(=O)NS9(=O)=O)c(F)c8c7)C6)CC5(F)F)ccc2c34)C(=O)N1 (centres unmarked) [Example 165]	DC50	50 to 200 nM
Cn1c(=O)n(C2CCC(=O)NC2=O)c2ccc(N3CCN(CCn4cc(-c5ccc6cc(O)c(N7CC(=O)NS7(=O)=O)c(F)c6c5)cn4)CC3)cc21 (centres unmarked) [Example 110]	DC50	50 to 200 nM
Cn1c(=O)n(C2CCC(=O)NC2=O)c2ccc(C3CCN(CCC(=O)NCCOc4ccc5cc(O)c(N6CC(=O)NS6(=O)=O)c(F)c5c4)CC3)cc21 (centres unmarked) [Example 6]	DC50	≥ 1000 nM
Cn1c(=O)n(C2CCC(=O)NC2=O)c2ccc(N3CCC(O)(CC(=O)N4CC[C@@H](COc5ccc6cc(O)c(N7CC(=O)NS7(=O)=O)c(F)c6c5)C4)CC3)cc21 (some centres unmarked) [Example 155]	DC50	200 to 1000 nM
Cn1c(=O)n(C2CCC(=O)NC2=O)c2ccc(C3CCN(CCn4cc(-c5ccc6cc(O)c(N7CC(=O)NS7(=O)=O)c(F)c6c5)cn4)CC3)cc21 (centres unmarked) [Example 135]	DC50	50 to 200 nM
O=C1CCC(N2C(=O)c3cccc(NCc4cccc(C(=O)Nc5ccc6c(F)c(N7CC(=O)NS7(=O)=O)c(O)cc6c5)c4)c3C2=O)C(=O)N1 (centres unmarked) [Example 61]	DC50	≥ 1000 nM
Cn1c(=O)n(C2CCC(=O)NC2=O)c2ccc(C3CCN(CC(=O)N4CCC(c5ccc6cc(O)c(N7CC(=O)NS7(=O)=O)c(F)c6c5)CC4)CC3)cc21 (centres unmarked) [Example 120]	DC50	50 to 200 nM
Cn1c(=O)n(C2CCC(=O)NC2=O)c2ccc(-c3ccc(NCC(C)(C)CCOc4ccc5cc(O)c(N6CC(=O)NS6(=O)=O)c(F)c5c4)cc3)cc21 (centres unmarked) [Example 151]	DC50	≥ 1000 nM
Cn1nc(C2CCC(=O)NC2=O)c2ccc(C3CCN(C(=O)Cn4cc(-c5ccc6c(F)c(N7CC(=O)NS7(=O)=O)c(O)cc6c5)cn4)CC3)cc21 (centres unmarked) [Example 79]	DC50	200 to 1000 nM
Cn1c(=O)n(C2CCC(=O)NC2=O)c2ccc(-c3ccc(CC(=O)Nc4ccc5c(F)c(N6CC(=O)NS6(=O)=O)c(O)cc5c4)nc3)cc21 (centres unmarked) [Example 175]	DC50	50 to 200 nM
Cn1c(=O)n(C2CCC(=O)NC2=O)c2ccc(C3CCN(CCS(=O)(=O)N4CC=C(c5ccc6cc(O)c(N7CC(=O)NS7(=O)=O)c(F)c6c5)C4)CC3)cc21 (centres unmarked) [Example 107]	DC50	50 to 200 nM
Cn1c(=O)n(C2CCC(=O)NC2=O)c2ccc(C3CCN(C(=O)NCCOc4ccc5cc(O)c(N6CC(=O)NS6(=O)=O)c(F)c5c4)CC3)cc21 (centres unmarked) [Example 31]	DC50	≥ 1000 nM
Cn1c(=O)n(C2CCC(=O)NC2=O)c2ccc(C3CCN(CC(=O)N4CC[C@@H](COc5ccc6cc(O)c(N7CC(=O)NS7(=O)=O)c(F)c6c5)C4)CC3(F)F)cc21 (some centres unmarked) [Example 162]	DC50	50 to 200 nM
O=C1CCC(N2Cc3c(NCc4cnn(CCC(=O)Nc5ccc6c(F)c(N7CC(=O)NS7(=O)=O)c(O)cc6c5)c4)cccc3C2=O)C(=O)N1 (centres unmarked) [Example 13]	DC50	200 to 1000 nM
CN(CCOc1ccc2cc(O)c(N3CC(=O)NS3(=O)=O)c(F)c2c1)C(=O)CNCCCc1ccc2c3c(cccc13)C(=O)N2C1CCC(=O)NC1=O (centres unmarked) [Example 166]	DC50	200 to 1000 nM
Cn1c(=O)n(C2CCC(=O)NC2=O)c2ccc(N3CCC(CCNC(=O)Nc4ccc5c(F)c(N6CC(=O)NS6(=O)=O)c(O)cc5c4)CC3)cc21 (centres unmarked) [Example 181]	DC50	50 to 200 nM
O=C1CCC(N2Cc3cc(NCC(=O)N4CCC(C(=O)NCCOc5ccc6cc(O)c(N7CC(=O)NS7(=O)=O)c(F)c6c5)CC4)ccc3C2=O)C(=O)N1 (centres unmarked) [Example 35]	DC50	200 to 1000 nM
O=C1CCC(Nc2ccc(C3CCN(CC(=O)Nc4ccc5c(F)c(N6CC(=O)NS6(=O)=O)c(O)cc5c4)CC3(F)F)cc2)C(=O)N1 (centres unmarked) [Example 113]	DC50	200 to 1000 nM
O=C1CCC(N2Cc3c(NCC(=O)N4CCC(C(=O)Nc5ccc6c(F)c(N7CC(=O)NS7(=O)=O)c(O)cc6c5)CC4)cccc3C2=O)C(=O)N1 (centres unmarked) [Example 65]	DC50	200 to 1000 nM
Cn1c(=O)n(C2CCC(=O)NC2=O)c2ccc(C3=CCC(CNC(=O)c4ccc5c(F)c(N6CC(=O)NS6(=O)=O)c(O)cc5c4)CC3)cc21 (centres unmarked) [Example 102]	DC50	200 to 1000 nM

Value source: patent US20240383886A1
